Each recorded value in this set is attributed to the OPERA property sets (Mansouri et al. 2018).

assay endpoint: logP

>  <sample smiles>
COc1ccc(C(=O)NN=Cc2c(O)ccc3ccccc23)cc1

>  <assay endpoint>
logP

>  <assay value>
4.06

$$$$
>  <sample smiles>
Oc1ccccc1C=NNc1ccccn1

>  <assay endpoint>
logP

>  <assay value>
3.24

$$$$
>  <sample smiles>
O=C(NN=Cc1c(O)ccc2ccccc12)c1cccc(F)c1

>  <assay endpoint>
logP

>  <assay value>
4.06

$$$$
>  <sample smiles>
CC(=O)NN=Cc1c(O)ccc2ccccc12

>  <assay endpoint>
logP

>  <assay value>
2.91

$$$$
>  <sample smiles>
COc1ccc(C(=O)NN=Cc2ccccc2O)cc1

>  <assay endpoint>
logP

>  <assay value>
3.34

$$$$
>  <sample smiles>
Cc1ccc(C(=O)NN=Cc2c(CO)cnc(C)c2O)cc1

>  <assay endpoint>
logP

>  <assay value>
2.54

$$$$
>  <sample smiles>
COc1ccc(C(=O)NN=Cc2c(CO)cnc(C)c2O)cc1

>  <assay endpoint>
logP

>  <assay value>
2.47

$$$$
>  <sample smiles>
Cc1ccc(C(=O)NN=Cc2ccccc2O)cc1

>  <assay endpoint>
logP

>  <assay value>
3.39

$$$$
>  <sample smiles>
O=C(NN=Cc1ccccc1O)c1cccc(Cl)c1

>  <assay endpoint>
logP

>  <assay value>
3.83

$$$$
>  <sample smiles>
O=C(NN=Cc1c(O)ccc2ccccc12)c1ccc(O)cc1

>  <assay endpoint>
logP

>  <assay value>
3.95

$$$$
>  <sample smiles>
CC(=O)NN=Cc1ccccc1O

>  <assay endpoint>
logP

>  <assay value>
1.71

$$$$
